System: LXRb:RXRa (NR concentration 270 nM, RXRa partner concentration 90 nM)
experiment_description: PBM binding z-score (relative to random genomic background probes); higher = stronger binding; sequences stand for … in GC…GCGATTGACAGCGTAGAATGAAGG
Reported values of PBM binding z-score for individual entries
metric_name: PBM binding z-score

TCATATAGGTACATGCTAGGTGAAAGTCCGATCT ... 0.622
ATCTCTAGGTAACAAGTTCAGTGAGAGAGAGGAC ... 0.613
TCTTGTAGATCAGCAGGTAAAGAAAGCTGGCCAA ... -0.119
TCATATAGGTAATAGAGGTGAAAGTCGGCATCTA ... 1.43
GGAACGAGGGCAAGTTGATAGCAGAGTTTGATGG ... 0.278
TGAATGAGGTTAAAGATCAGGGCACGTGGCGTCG ... 1.81
CCTTAAGGGTCAAGGTTATAGCACGGGTGGTACG ... 4.67
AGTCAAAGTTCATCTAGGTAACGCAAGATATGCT ... 3.61
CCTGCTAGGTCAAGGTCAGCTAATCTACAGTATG ... 3.19
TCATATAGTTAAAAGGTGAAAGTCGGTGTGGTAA ... 1.98
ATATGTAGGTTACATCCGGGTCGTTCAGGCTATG ... 1.67
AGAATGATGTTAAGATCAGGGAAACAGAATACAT ... -0.269
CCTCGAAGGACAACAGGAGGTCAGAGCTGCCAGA ... 1.5

====

System: RARa:RXR (NR concentration 270 nM, RXRa partner concentration 90 nM)
experiment_description: PBM binding z-score (relative to random genomic background probes); higher = stronger binding; sequences stand for … in GC…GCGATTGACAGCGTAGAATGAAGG
metric_name: PBM binding z-score

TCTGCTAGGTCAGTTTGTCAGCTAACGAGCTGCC ... 0.454
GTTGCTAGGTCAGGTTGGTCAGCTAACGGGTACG ... 0.933
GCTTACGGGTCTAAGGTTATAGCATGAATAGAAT ... 1.66
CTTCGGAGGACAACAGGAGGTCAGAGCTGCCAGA ... 2.64
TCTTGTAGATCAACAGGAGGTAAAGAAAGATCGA ... -0.044
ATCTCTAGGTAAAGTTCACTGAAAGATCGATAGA ... 2.82
GCATATAGGTAATACAAGGTGAAGGTCCGATTGT ... 1.23
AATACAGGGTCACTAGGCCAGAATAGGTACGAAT ... 4.21
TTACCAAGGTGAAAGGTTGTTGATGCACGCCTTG ... 2.32
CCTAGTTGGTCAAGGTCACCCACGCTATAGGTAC ... 4.82
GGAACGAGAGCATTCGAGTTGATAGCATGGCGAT ... -0.817
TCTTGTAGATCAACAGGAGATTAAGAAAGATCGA ... -0.526
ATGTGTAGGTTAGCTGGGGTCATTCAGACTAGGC ... 6.36
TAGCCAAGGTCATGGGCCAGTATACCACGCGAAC ... 4.73
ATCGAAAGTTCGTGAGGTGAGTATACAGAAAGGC ... 1.39
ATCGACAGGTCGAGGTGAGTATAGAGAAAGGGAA ... 0.649
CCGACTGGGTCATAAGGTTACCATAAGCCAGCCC ... 4.18
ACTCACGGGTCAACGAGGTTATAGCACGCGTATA ... 5.51
CCTAGATGGTCAAGGTCACACACGCTATAGGTAC ... 4.57
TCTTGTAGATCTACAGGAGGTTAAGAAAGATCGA ... 0.866
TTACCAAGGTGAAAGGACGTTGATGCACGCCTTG ... 0.603
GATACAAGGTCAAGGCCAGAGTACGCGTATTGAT ... 4.27
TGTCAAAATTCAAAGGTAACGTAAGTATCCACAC ... 1.04
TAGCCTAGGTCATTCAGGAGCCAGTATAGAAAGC ... 2.19
CGTCCAAGGTCAAGGACAGTGAAAGAGACTCGAA ... 4.25
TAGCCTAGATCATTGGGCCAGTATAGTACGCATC ... -0.564
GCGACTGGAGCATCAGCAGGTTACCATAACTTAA ... 0.0402
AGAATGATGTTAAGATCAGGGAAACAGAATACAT ... -0.274
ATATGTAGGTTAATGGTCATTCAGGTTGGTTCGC ... 0.723
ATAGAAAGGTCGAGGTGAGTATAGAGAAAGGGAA ... 3.6
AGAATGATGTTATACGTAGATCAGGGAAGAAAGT ... -0.276
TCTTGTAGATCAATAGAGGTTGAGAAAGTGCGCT ... 0.48
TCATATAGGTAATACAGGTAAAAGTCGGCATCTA ... 0.922
GCTTGTAGATCAAGGGTAAGAAAGACTAAGCTAA ... -0.346
ACTATTAGTTGAGACGAGGGCATCCGATAGGTTG ... 0.817
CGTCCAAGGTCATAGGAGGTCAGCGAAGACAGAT ... 6.41
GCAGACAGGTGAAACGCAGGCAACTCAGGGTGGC ... 0.0177
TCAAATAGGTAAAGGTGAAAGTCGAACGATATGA ... 1.93
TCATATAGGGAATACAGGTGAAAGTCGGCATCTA ... 1.2
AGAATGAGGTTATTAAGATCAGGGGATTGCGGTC ... 1.15
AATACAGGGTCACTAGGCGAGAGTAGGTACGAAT ... 4.27

====

Tested on: THRa homodimer (NR concentration 90 nM)
experiment_description: PBM binding z-score (relative to random genomic background probes); higher = stronger binding; sequences stand for … in GC…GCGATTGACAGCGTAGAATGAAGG
Categories are assigned from the measured PBM binding z-score using these intervals: class 0: < 0.06; class 1: ≥ 0.06 and < 1; class 2: ≥ 1

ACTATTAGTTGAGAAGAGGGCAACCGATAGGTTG ... class 0
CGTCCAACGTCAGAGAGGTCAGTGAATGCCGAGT ... class 1
AGAACGAGGGCAATGAGTAGATAGCACGGGTGGC ... class 0
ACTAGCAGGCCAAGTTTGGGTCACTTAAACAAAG ... class 2
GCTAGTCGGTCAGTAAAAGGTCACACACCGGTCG ... class 2
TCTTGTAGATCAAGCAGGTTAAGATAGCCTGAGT ... class 0
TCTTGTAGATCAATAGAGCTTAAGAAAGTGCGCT ... class 0
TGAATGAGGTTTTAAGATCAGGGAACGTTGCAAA ... class 0
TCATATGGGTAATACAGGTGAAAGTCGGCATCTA ... class 0
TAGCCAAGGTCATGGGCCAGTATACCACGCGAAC ... class 2
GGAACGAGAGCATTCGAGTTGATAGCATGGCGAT ... class 0
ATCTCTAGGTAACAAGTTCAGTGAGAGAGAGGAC ... class 1
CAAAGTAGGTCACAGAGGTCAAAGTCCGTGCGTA ... class 2
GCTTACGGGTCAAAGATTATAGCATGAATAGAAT ... class 0
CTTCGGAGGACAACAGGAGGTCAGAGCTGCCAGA ... class 2
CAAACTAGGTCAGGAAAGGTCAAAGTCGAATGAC ... class 2
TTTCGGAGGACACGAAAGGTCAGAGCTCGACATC ... class 2
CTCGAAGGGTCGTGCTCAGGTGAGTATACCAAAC ... class 1
AGAACGAGGGCACGCTGAGTTGATGGCAGAGTAG ... class 1
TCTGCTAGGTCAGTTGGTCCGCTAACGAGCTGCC ... class 0
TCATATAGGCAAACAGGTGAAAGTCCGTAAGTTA ... class 1
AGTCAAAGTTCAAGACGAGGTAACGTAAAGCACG ... class 1
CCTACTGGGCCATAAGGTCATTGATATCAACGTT ... class 2
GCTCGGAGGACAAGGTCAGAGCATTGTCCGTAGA ... class 2
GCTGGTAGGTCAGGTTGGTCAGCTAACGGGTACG ... class 1
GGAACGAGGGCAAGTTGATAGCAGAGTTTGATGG ... class 1
CTACCAAGGTGAACAAGGTCGATGATTACTATTC ... class 2
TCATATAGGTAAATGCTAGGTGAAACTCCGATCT ... class 1
GGAACGAGGGCAAGTCGATAGCAGAGTTTGATGG ... class 0
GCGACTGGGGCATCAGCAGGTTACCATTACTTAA ... class 1
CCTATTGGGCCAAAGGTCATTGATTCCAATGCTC ... class 1

====

Test system: RXRa homodimer (NR concentration 180 nM)
experiment_description: PBM binding z-score (relative to random genomic background probes); higher = stronger binding; sequences stand for … in GC…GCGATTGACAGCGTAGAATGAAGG
# label = fulfilled if PBM binding z-score >= 2 else not fulfilled

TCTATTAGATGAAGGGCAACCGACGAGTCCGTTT ... not fulfilled
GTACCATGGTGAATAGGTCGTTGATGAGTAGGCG ... not fulfilled
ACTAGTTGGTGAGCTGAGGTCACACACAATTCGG ... fulfilled
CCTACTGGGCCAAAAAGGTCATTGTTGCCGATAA ... fulfilled
TCATATAGGTAATACCGGTGAAAGTCGGCATCTA ... not fulfilled
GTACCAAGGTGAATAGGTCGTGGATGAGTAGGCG ... fulfilled
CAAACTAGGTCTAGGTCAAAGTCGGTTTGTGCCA ... not fulfilled
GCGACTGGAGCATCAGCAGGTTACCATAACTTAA ... not fulfilled
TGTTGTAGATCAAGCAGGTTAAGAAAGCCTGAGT ... not fulfilled
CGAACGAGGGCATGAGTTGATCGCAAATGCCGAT ... not fulfilled
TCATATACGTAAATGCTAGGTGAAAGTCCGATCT ... not fulfilled
